Below: a set of entries, each annotated with reported IC50.
Biological target: recombinant BRD4 BD2 (Homo sapiens)
Construct: for recombinant BRD4 BD1 and BRD4 BD2 proteins
Assay: Competitive fluorescence-polarization (FP) binding assay, BRD4 BD2; further: probe 1.5 nM
Conditions: competitive FP assay; protein 6 nM, probe […]; read-out: IC50 (nM) BRD4 BD2
Procedure: Fluorescence Polarization (FP) competitive binding studies were carried out using a FAM labeled fluorescent probe (ZBA248 or BRD-1F) to determine binding affinities of representative Compounds of the Disclosure for recombinant BRD4 BD1 and BRD4 BD2 proteins. […] Kd values of ZBA248 were calculated by fitting the sigmoidal dose-dependent FP increases as a function of protein concentrations using Graphpad Prism 6.0 software (Graphpad Software, San Diego, Calif.). […]
Expressed in nM, but write only the number.

Below, 2 molecules whose answers are already recorded.
1. COc1cc2c(cc1-c1c(C)noc1C)[nH]c1nc(C)nc(Nc3ccnn3C(C)C)c12 [Cpd. No. 175]
6.9
2. COc1cc2c(cc1-c1c(C)noc1C)[nH]c1nc(C)nc(Nc3cccc(Cl)c3F)c12 [Cpd. No. 217]
68

// switching to the query molecule
INPUT: What IC50 value was documented for this molecule, COc1cc2c(cc1-c1c(C)noc1C)[nH]c1nc(C)nc(Nc3c(C)c(C4CC4)nn3C)c12 [Cpd. No. 147] ?
OUTPUT: 93.7

----------
Molecular target: recombinant BRD4 BD1 (Homo sapiens, UniProt O60885)
Construct: for recombinant BRD4 BD1 and BRD4 BD2 proteins
Experiment: Competitive fluorescence-polarization (FP) binding assay, BRD4 BD1
Details: FP competitive binding, BRD4 BD1; read-out: Binding affinities (FP) BRD4BD1 IC50
Below: a set of entries, each annotated with reported pIC50.
// field semantics: pIC50 = negative decimal log of concentration (mol/L)

Below, 3 compounds whose answers are already recorded.
1) COc1nc2c(cc1-c1c(C)noc1C)[nH]c1nc(C)nc(Nc3nn(C)c4ncccc34)c12
5.96
2) COc1nc2c(cc1-c1c(C)noc1C)[nH]c1nc(C)nc(N(C)C3CCCC3)c12
6.32
3) COc1nc2c(cc1-c1c(C)noc1C)[nH]c1nc(C)nc(N(C)c3cccc(C)c3)c12
7.13

// switching to the query compound
INPUT: What pIC50 value was documented for this compound, "COc1cc2c(cc1-c1c(C)noc1C)[nH]c1nc(C)nc(Nc3cc(C4CC4)nn3C[C@H](O)CO)c12" ?
OUTPUT: 8.21

----------
System: MDA-MB-436
Test: Cell growth inhibition, MDA-MB-436 breast cancer cells (WST-8)
Assay type: cell-based
Details: Homo sapiens, MDA-MB-436, 96 h; 4 days; read-out: IC50 (nM) MDA-MB-436 Cell Line (WST assay)
READOUT TYPE: IC50 (nM)
Expressed in nM, but write only the number.

1) CCn1nc(C2CC2)cc1Nc1nc(C)nc2[nH]c3cc(-c4c(C)noc4C)c(OC)cc3c12
14.5
2) CCn1nc(C2CC2)c(C)c1Nc1nc(C)nc2[nH]c3cc(-c4c(C)noc4C)c(OC)cc3c12
170
3) CCn1nc2c(c1Nc1nc(C)nc3[nH]c4cc(-c5c(C)noc5C)c(OC)cc4c13)CCCC2
7.3
4) CCn1nc(C)c(C)c1Nc1nc(C)nc2[nH]c3cc(-c4c(C)noc4C)c(OC)cc3c12
132
5) COc1cc2c(cc1-c1c(C)noc1C)[nH]c1nc(C)nc(Nc3cnc4ccccn34)c12
307
6) COc1cc2c(cc1-c1c(C)noc1C)[nH]c1nc(C)nc(Nc3cc(C4CCC4)nn3C)c12
63.2
7) COc1cc2c(cc1-c1c(C)noc1C)[nH]c1nc(C)nc(Nc3cccc(C(F)(F)F)c3)c12
249
8) COc1cc2c(cc1-c1c(C)noc1C)[nH]c1nc(C)nc(Nc3c(C)noc3C)c12
360
9) COc1cc2c(cc1-c1c(C)noc1C)[nH]c1nc(C)nc(Nc3c(-c4ccccc4)noc3C)c12
380
10) COc1cc2c(cc1-c1c(C)noc1C)[nH]c1nc(C)nc(NC3CCCCC3)c12
2430

INPUT: What IC50 value was documented for this molecule, "COc1cc2c(cc1-c1c(C)noc1C)[nH]c1nc(C)nc(Nc3scnc3C(C)(C)C)c12" ?
OUTPUT: 303

INPUT: What IC50 value was documented for this molecule, "COc1cc2c(cc1-c1c(C)noc1C)[nH]c1nc(C)nc(Nc3cnn4c3CCCC4)c12" ?
OUTPUT: 110

INPUT: What IC50 value was documented for this molecule, "COc1cc2c(cc1-c1c(C)noc1C)[nH]c1nc(C)nc(Nc3cn(C)cn3)c12" ?
OUTPUT: 1420
